The reported measurements were obtained from PubChem BioAssay AID1963971.

- Test system: 953936-095-R-J2-PDC spheroids with HUVEC/MSC, viability;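 note: spheroids exposed to compounds for seven days before read-out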
- assaySummary: Anticancer human tumor 953936-095-R-J2-PDC patient-derived cervical squamous cell carcinoma cell line growth inhibition [PI3K]
- assayContext: second compound 0.1 µM; first compound 0.0316 µM; stronger effect = lower value
Recorded measurements of viability, T/C, one per entry
Kindly answer with a numeric value in %, unit omitted.

molecule | measureUnit | viability, T/C
Cn1ncc(Cl)c1-c1cc(C(=O)NC(CN)Cc2cccc(F)c2)sc1Cl (stereo not given) + CC(Nc1ccc2c(c1)OCCn1cc(N3C(=O)OCC3C(F)F)nc1-2)C(N)=O | % | 66.6
CC(C)n1nc(-c2ccc3oc(N)nc3c2)c2c(N)ncnc21 + CC(Nc1ccc2c(c1)OCCn1cc(N3C(=O)OCC3C(F)F)nc1-2)C(N)=O | % | 21.6
C=CC(=O)N1CCN(c2nc(=O)n(-c3c(C)ccnc3C(C)C)c3nc(-c4c(O)cccc4F)c(F)cc23)C(C)C1 (stereo not given) + COc1c(OCCCN2CCOCC2)ccc2c3n(c(=NC(=O)c4cnc(N)nc4)nc12)CCN3 | % | 18.6

Task: Lab note: record viability, T/C of C[C@@H](NC(=O)c1ncnc(N)c1Cl)c1ncc(C(=O)Nc2cc(C(F)(F)F)c(Cl)cn2)s1 + CC(Nc1ccc2c(c1)OCCn1cc(N3C(=O)OCC3C(F)F)nc1-2)C(N)=O tested on 953936-095-R-J2-PDC spheroids with HUVEC/MSC, viability.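 Note: spheroids exposed to compounds for seven days before read-out.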
Output: 55.6

Task: Lab note: record viability, T/C of CC1(C)CCC(Nc2ncc(C(F)(F)F)c(-c3c[nH]c4c(P(C)(C)=O)c(C#N)ccc34)n2)CN1 (stereo not given) + CC(Nc1ncnc2nc[nH]c12)c1cc2cccc(Cl)c2c(=O)n1-c1ccccc1 tested on 953936-095-R-J2-PDC spheroids with HUVEC/MSC, viability.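 Note: spheroids exposed to compounds for seven days before read-out.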
Output: 52.2
